# system-under-test: purified human IDO protein (Homo sapiens, UniProt P14902, E119G/P110S)
# Construct: 6-Histidine tag (C)
# Sequence (P14902 whole entry P110S/E119G): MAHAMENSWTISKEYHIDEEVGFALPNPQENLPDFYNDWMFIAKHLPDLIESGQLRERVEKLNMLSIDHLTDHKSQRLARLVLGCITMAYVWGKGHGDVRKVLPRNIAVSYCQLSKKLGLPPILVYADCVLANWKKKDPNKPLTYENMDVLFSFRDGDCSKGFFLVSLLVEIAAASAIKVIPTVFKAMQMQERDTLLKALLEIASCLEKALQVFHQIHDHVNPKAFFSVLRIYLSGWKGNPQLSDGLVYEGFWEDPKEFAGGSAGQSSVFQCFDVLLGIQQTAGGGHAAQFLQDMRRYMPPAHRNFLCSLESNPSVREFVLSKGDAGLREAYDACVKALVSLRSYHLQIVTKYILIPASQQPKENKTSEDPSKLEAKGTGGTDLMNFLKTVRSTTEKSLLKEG
# assay-protocol: Enzymatic IDO assay (kynurenine formation, absorbance at 480 nm)
# condition-notes: recombinant human IDO, 200 μM L-tryptophan, pH 6.5; reported in ranges
Below, each entry is listed alongside its reported IC50.

Here's what some known entries look like.
Need IC50, item CC(C)(C)CCn1cncc1-c1ccccc1OCc1ccc(Cl)cc1 [Compound 106]
100 to 500 µM

Need IC50, item CC(=O)NCCCn1cncc1-c1ccccc1 [Compound 124]
100 to 500 µM

Need IC50, item CC(C)(C)OC(=O)NCCCCn1cncc1-c1ccccc1 [Compound 86]
20 to 100 µM

Need IC50, item COc1cccc(OC)c1-c1c[nH]cn1 [Compound 103, 5-(2,6-dimethoxyphenyl)-1H-imidazole]
100 to 500 µM

Need IC50, item Oc1ccccc1-c1cc[nH]n1 [Compound 43, 2-(1H-pyrazol-3-yl)phenol]
< 20 µM

Lab note: next compound to report on.
Need IC50, item CC(C)(C)CCOc1c(Br)cccc1-c1c[nH]cn1 [Compound 26]
< 20 µM

* * *

# system-under-test: purified human IDO protein (Homo sapiens, UniProt P14902, E119G/P110S)
# Construct: 6-Histidine tag (C)
# assay-protocol: Enzymatic IDO assay (kynurenine formation, absorbance at 480 nm)
# condition-notes: recombinant human IDO, 200 μM L-tryptophan, pH 6.5; reported in ranges
reported-property: IC50

Need IC50, item Oc1ccccc1Cn1cncc1-c1ccccc1
20 to 100 µM

Need IC50, item CC(C)(C)OC(=O)N1CCC(CCOc2ccccc2-c2c[nH]cn2)CC1
20 to 100 µM

Need IC50, item NC(=O)CCCn1cncc1-c1ccccc1 [Compound 129, 4-(5-phenyl-1H-imidazol-1-yl)butanamide]
100 to 500 µM

Need IC50, item CC(=O)N1CCC(COc2ccccc2-c2c[nH]cn2)CC1
100 to 500 µM

Lab note: next compound to report on.
Need IC50, item CCc1ccc(O)c(-c2cnc[nH]2)c1
100 to 500 µM
